Assay: chemical genetic growth profiling, strain panel (AID 1159580);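 note: tested at 20 µM; growth read once vehicle control cultures reached saturation at 30 °C; 1 = growth at the plate median or of vehicle wells; lower values mean less growth of the strain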
Settings: S. cerevisiae deletion strains, growth OD, locus YLR371W, strain rom2, active compounds read low
The campaign covered roughly 5,500 compounds. About 2,000 (36%) were called active. Inconclusive results (about 18%) are left out. This is one part of the list.
observation-type: normalized growth

- CC1(C)S[C@@H]2C(N3C(=O)[C@@H](c4ccccc4)NC3(C)C)C(=O)N2[C@H]1C(=O)O (some centres undefined): 1.01
- COc1ccc(-c2cc(=O)c3c(O)cc(O)cc3o2)cc1: 0.99
- CCCCCC(O)C1C(=O)OC(C)C(O)/C=C/C=C/C=C/C=C/C=C(\C)C(O)CC(O)CC(O)CC(O)CC(O)CC(O)CC1O (centres undefined): 1.02
- CC1(C)C(O)CC(=O)C2(C)C1CC(O)C1(C)C2CCC2(C)C(c3ccoc3)OC(=O)C3OC321 (centres undefined): 0.984
- COc1ccc(-c2cc(=O)c3c(O)cc(O)c(-c4cc(-c5cc(=O)c6c(O)cc(O)cc6o5)ccc4OC)c3o2)cc1: 1
- COc1cc(C(=O)O)cc(OC)c1OC: 1.04
- C/C=C(\C)C(=O)O[C@@H]1c2c(ccc3ccc(=O)oc23)OC(C)(C)[C@@H]1OC(C)=O: 1.02
- C[C@@H](CO)NC(=O)C1C=C2c3cccc4[nH]cc(c34)C[C@H]2N(C)C1 (some centres undefined): 0.993
- CNC[C@H](O)c1cccc(O)c1: 1.01
- COc1ccccc1N1CCN(CCCNc2cc(=O)n(C)c(=O)n2C)CC1: 1
- CN(C)C(=O)C(CCN1CCC(O)(c2ccc(Cl)cc2)CC1)(c1ccccc1)c1ccccc1: 1.01
- CC(=O)O[C@@H]1c2c(ccc3ccc(=O)oc23)OC(C)(C)[C@@H]1OC(=O)CC(C)C: 1.02
- CCCc1nn(C)c2c(=O)[nH]c(-c3cc(S(=O)(=O)N4CCN(C)CC4)ccc3OCC)nc12: 0.978
- COP(N)(=O)SC (centres undefined): 1.02
- COc1ccc(-c2cc(=O)c3c(O)c(OC)c(O[C@H]4O[C@H](CO[C@@H]5O[C@@H](C)[C@H](O)[C@@H](O)[C@H]5O)[C@@H](O)[C@H](O)[C@H]4O)cc3o2)cc1: 1.03
- COc1cc(C(=O)N2CCOCC2)cc(OC)c1OC: 0.0857
- N#Cc1c(Cl)cccc1Cl: 1.01
- C/C=C(/C)C(=O)O[C@@H]1Cc2c(ccc3ccc(=O)oc23)OC1(C)C: 1
- O=C(/C=C(\O)c1ccccc1)c1ccccc1O: 0.801

###

Experiment: chemical genetic growth profiling, strain panel (AID 1159580);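 note: tested at 20 µM; growth read once vehicle control cultures reached saturation at 30 °C; 1 = growth at the plate median or of vehicle wells; lower values mean less growth of the strain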
Conditions: S. cerevisiae deletion strains, growth OD, locus YPR163C, strain tif3, active compounds read low
The whole screen tested about 5,500 compounds, of which about 2,000 (36%) were called active. About 18% were inconclusive and are not listed. This is one part of the list.
Quick reference for normalized growth among some molecules
observation-type: normalized growth

* COc1nc(NC(C)C)nc(NC(C)C)n1 | 1.02
* C/C=C/CC(C)C(O)C1C(=O)NC(CC)C(=O)N(C)CC(=O)N(C)C(CC(C)C)C(=O)NC(C(C)C)C(=O)N(C)C(CC(C)C)C(=O)NC(C)C(=O)NC(C)C(=O)N(C)C(CC(C)C)C(=O)N(C)C(CC(C)C)C(=O)N(C)C(C(C)C)C(=O)N1C (centres undefined) | 1.02
* COc1cc(O)c2c(=O)cc(-c3ccc(OC)c(-c4c(O)cc(O)c5c(=O)cc(-c6ccc(O)cc6)oc45)c3)oc2c1 | 0.997
* NCCCCN | 1.01
* N#Cc1c(Cl)cccc1Cl | 1.02
* CCc1ccc2c(O)c3c(cc2c1C(=O)OC)C(=O)c1c(O)ccc(O)c1C3=O | 1.01
* CC1(C)O[C@@H]2CC3C4C[C@H](F)C5=CC(=O)CC[C@]5(C)C4[C@@H](O)C[C@]3(C)[C@]2(C(=O)CO)O1 (some centres undefined) | 1
* Cc1ccc(C(C)C)c(O)c1C(=O)O | 0.908
* C[C@@H]1CCC2[C@](C)(CO)[C@@H](O)CC[C@]2(C)[C@@]12CC[C@@](CO)(CCO)O2 (some centres undefined) | 0.983
* Cc1c(C(N)=O)cc([N+](=O)[O-])cc1[N+](=O)[O-] | 0.975
* COc1ccc(-c2cc(=O)c3c(O)cc(O)cc3o2)cc1O | 1.01
* CNC[C@H](O)c1cccc(O)c1 | 1.02
* COP(N)(=O)SC (centres undefined) | 1.02
* COc1cc(C)c2c(=O)c3c(O)cc(O)cc3oc2c1 | 0.896
* Cc1ccccc1N1C(=O)c2cc(S(N)(=O)=O)c(Cl)cc2NC1C (centres undefined) | 0.981
* C/C=C(/C)C(=O)O[C@@H]1Cc2c(ccc3ccc(=O)oc23)OC1(C)C | 0.987
* O=c1c(O)cc([C@H]2Oc3cc(O)cc(O)c3C[C@H]2O)cc2c([C@H]3Oc4cc(O)cc(O)c4C[C@H]3O)cc(O)c(O)c12 | 1.01
* CC1(C)C(O)CC(=O)C2(C)C1CC(O)C1(C)C2CCC2(C)C(c3ccoc3)OC(=O)C3OC321 (centres undefined) | 1.01
* CC(=O)O[C@@H]1c2c(ccc3ccc(=O)oc23)OC(C)(C)[C@@H]1OC(=O)CC(C)C | 1.01
